tested on: Trypanosoma brucei brucei; experiment: WHO-TDR: Human African Trypanosomiasis (HAT); assay type: functional, organism-based; settings: Squib-427
reported-property: IC50 (µg/mL)

>>> measured_result("NC(=O)c1csc(NC(=O)C2(c3ccc(Cl)cc3)CCCC2)n1")
3.72
>>> measured_result("CS(=O)(=O)c1ccc(CC(=O)Nc2nc3c(s2)-c2cccc4cccc-3c24)cc1")
4.29
>>> measured_result("CN(C1CC1)S(=O)(=O)c1ccc(C(=O)Nc2nnc(-c3ccc(Br)s3)o2)cc1")
4.75

----------
test system: Trypanosoma cruzi; assay: WHO-TDR: Chagas disease; assay type: functional, organism-based, Homo sapiens; conditions: MRC5
reported-property: IC50

>>> measured_result("CC(C)(C)n1ncc2c(=O)n(CCC(=O)Nc3ccc4c(c3)OCO4)cnc21")
"> 11.5 µg/mL"
>>> measured_result("CC(C)c1ccc2nc(Nc3nc4ccc(S(C)(=O)=O)cc4s3)sc2c1")
"> 12.1 µg/mL"
>>> measured_result("Cc1cccc2sc(NC(=O)CCc3csc(NC(=O)c4ccco4)n3)nc12")
"> 12.4 µg/mL"
>>> measured_result("O=C(Nc1nccs1)c1ccc2c(c1)CCCC2")
"> 7.75 µg/mL"
>>> measured_result("CCn1ccnc1N1CCN(CC(=O)NCc2ccc(C)cc2)CC1")
"> 12.4 µg/mL"
>>> measured_result("O=C(NCCn1nc(-c2ccco2)ccc1=O)C1c2ccccc2Oc2ccccc21")
"> 12.4 µg/mL"
>>> measured_result("COc1ccc(C(CNS(=O)(=O)c2ccc(Cl)s2)N2CCOCC2)cc1 (centres undefined)")
"> 12.5 µg/mL"
>>> measured_result("CC(C)c1ccc(Nc2ncnc3[nH]ncc23)cc1")
"4.44 µg/mL"
>>> measured_result("CC(C)(C)n1ncc2c(=O)n(CCC(=O)NCc3ccccc3Cl)cnc21")
"> 11.6 µg/mL"
>>> measured_result("COc1ccc(CC(=O)NCCS(=O)(=O)N2CCN(c3ncccn3)CC2)cc1OC")
"> 13.5 µg/mL"
>>> measured_result("COc1ccc(C)cc1S(=O)(=O)NCCNc1ccc(Nc2cccc(C)n2)nn1")
"> 12.9 µg/mL"
>>> measured_result("O=C(CC1CCCC1)Nc1nc(CSCc2ccc(F)cc2)cs1")
"2.43 µg/mL"
>>> measured_result("O=C(COc1ccc(Cl)cc1Cl)Nc1nnc(C23CC4CC(CC(C4)C2)C3)s1")
"> 13.2 µg/mL"
>>> measured_result("NC(=O)c1ccc(NC(=O)CCCn2nc(-c3ccc(Cl)cc3)ccc2=O)cc1")
"> 12.3 µg/mL"
>>> measured_result("CN(C)C(CNS(=O)(=O)c1cc(Cl)ccc1Cl)c1ccsc1 (centres undefined)")
"> 11.4 µg/mL"
>>> measured_result("C=CCN(CC=C)S(=O)(=O)c1ccc(C(=O)Nc2nc3ccc(C(C)C)cc3s2)cc1")
"4.48 µg/mL"
>>> measured_result("O=C(CSc1nnc(NC(=O)COc2ccc(Cl)cc2)s1)NCC1CCCO1 (centres undefined)")
"0.416 µg/mL"
>>> measured_result("CN(C)CCCN(C(=O)c1ccc(Br)s1)c1nc2ccccc2s1")
"0.791 µg/mL"
>>> measured_result("CCOC(=O)c1sc(NC(=O)C2CCCN2S(C)(=O)=O)nc1-c1ccccc1 (centres undefined)")
"> 12.7 µg/mL"
>>> measured_result("Cc1nc2sc(C)c(C)n2c(=O)c1NC(=O)CC(c1ccccc1)c1ccccc1")
"> 12.5 µg/mL"
>>> measured_result("Cc1cc2cc(CNC(=O)CC(c3ccccc3)c3ccccc3)ccc2[nH]1")
"0.391 µg/mL"
>>> measured_result("O=S(=O)(NCCNc1ccc(Nc2ccncc2)nn1)c1cc(Cl)ccc1Cl")
"> 13.2 µg/mL"
>>> measured_result("CN(C)CCCN(C(=O)c1cc(-c2cccs2)nc2ccccc12)c1nc2c(F)cccc2s1")
"4.32 µg/mL"
>>> measured_result("O=C(Cc1csc(Nc2cccc(Cl)c2)n1)N1CCN(C(=O)c2ccco2)CC1")
"4.55 µg/mL"

----------
test: WHO-TDR: Cytotoxicity; format: toxicity, cell-based; conditions: human, MRC5 cells
Listed next: entries and their corresponding IC50.
reported-property: IC50

>>> measured_result("COc1ccc(-c2cn3c(C(=O)Nc4ccccc4F)csc3n2)cc1")
"> 11 µg/mL"
>>> measured_result("C/C=C/Cn1c(=O)c2c(nc3n(C(C)c4ccccc4)c(C)cn23)n(C)c1=O (stereo not drawn)")
"> 11.3 µg/mL"
>>> measured_result("CCOc1ccc(C(=O)Nc2nc3c(Cl)ccc(Cl)c3s2)cc1")
"> 11 µg/mL"
>>> measured_result("CCCc1cc(=O)[nH]c(-n2nc(C)cc2NC(=O)COc2ccc(Cl)cc2Cl)n1")
"0.362 µg/mL"
>>> measured_result("CCN(c1ccccc1)S(=O)(=O)c1ccc(C(=O)Nc2sc3c(c2C(=O)NC)CCCC3)cc1")
"> 11 µg/mL"
>>> measured_result("O=C(Nc1nc2c(s1)CSc1ccccc1-2)C1COc2ccccc2O1 (stereo not drawn)")
"2.62 µg/mL"
>>> measured_result("COC(=O)c1c(NC(=O)c2nc3ccccc3s2)sc2c1CC(C)(C)NC2(C)C")
"> 12.9 µg/mL"
>>> measured_result("O=C(c1ccco1)N1CCN(c2ccc(-c3cccs3)nn2)CC1")
"> 10.2 µg/mL"
>>> measured_result("Cc1nn(-c2ccc(F)cc2)c2ncc(C(=O)NCc3ccco3)c(Cl)c12")
"1.31 µg/mL"
>>> measured_result("CC(C)(C)C(=O)N1CCN(c2ccc(-c3ccncc3)nn2)CC1")
"> 9.76 µg/mL"
>>> measured_result("CC(=O)NCCNc1ccc(Nc2cc(C)ccn2)nn1")
"6.36 µg/mL"
>>> measured_result("CCOC(=O)N1CCN(C(=O)Nc2nc(CC(=O)Nc3ccc(F)c(F)c3)cs2)CC1")
"> 13.6 µg/mL"
>>> measured_result("O=C(NCCNC(=O)c1cccc(Cl)c1)c1ccc(NC(=O)c2ccc(F)cc2)cc1")
"> 13.2 µg/mL"
>>> measured_result("O=C(Cc1ccc(F)cc1)Nc1nc(-c2ccccn2)cs1")
"> 9.4 µg/mL"
>>> measured_result("COc1ccc(Cl)c2sc(N(CCCn3ccnc3)C(=O)c3cccc(F)c3)nc12")
"4.08 µg/mL"
>>> measured_result("CCCN1C(=O)CCc2cc(NS(=O)(=O)c3ccc(F)cc3)ccc21")
"> 10.9 µg/mL"
>>> measured_result("COc1ccc(Cl)cc1NC(=O)CSc1nnc(NC(=O)Cc2ccc(F)cc2)s1")
"> 8.44 µg/mL"
>>> measured_result("O=C(COc1ccccc1)NCC(c1ccco1)N1CCN(c2ccc(F)cc2)CC1 (stereo not drawn)")
"> 12.7 µg/mL"
>>> measured_result("Cc1csc(NC(=O)CSc2nnc(NC(=O)c3ccco3)s2)n1")
"5.73 µg/mL"
>>> measured_result("Cc1ccc(C)c2sc(N(CCCn3ccnc3)C(=O)Cc3ccc(F)cc3)nc12")
"3.26 µg/mL"
>>> measured_result("Cc1cc(C(=O)Nc2nnc(-c3ccc(Br)s3)o2)nn1C")
"3.2 µg/mL"
>>> measured_result("CCn1ccc(C(=O)Nc2nc(-c3cc(Cl)ccc3Cl)cs2)n1")
"> 11 µg/mL"
>>> measured_result("CC(C)c1ccc2nc(Nc3nc4ccc(S(C)(=O)=O)cc4s3)sc2c1")
"> 12.1 µg/mL"
>>> measured_result("O=S(=O)(CCCOc1ccc(F)cc1)NC1CCN(Cc2ccccc2)CC1")
"> 12.2 µg/mL"
>>> measured_result("O=C(CSc1ccc(NC(=O)c2cccs2)nn1)c1ccc(Cl)cc1")
"3.14 µg/mL"
>>> measured_result("O=S(=O)(c1cccnc1)N1CCN(c2ccc(-c3cccs3)nn2)CC1")
"> 11.6 µg/mL"
>>> measured_result("CCSc1nc(-c2ccccc2)c(NC(C)=O)s1")
"> 8.35 µg/mL"
>>> measured_result("O=C(Nc1ccc(F)cc1)Nc1cccc(-c2ccc(N3CCCC3)nn2)c1")
"> 11.3 µg/mL"
>>> measured_result("O=C(Nc1nnc(C2COc3ccccc3O2)o1)c1ccc(F)cc1 (stereo not drawn)")
"> 10.2 µg/mL"
>>> measured_result("CCCCC1CCC(C(=O)NCCn2nc(-c3ccncc3)ccc2=O)CC1 (stereo not drawn)")
"11 µg/mL"
>>> measured_result("O=C(Nc1ccc(OC(F)(F)F)cc1)c1csc(NS(=O)(=O)c2cccs2)n1")
"> 13.5 µg/mL"
>>> measured_result("C=CCn1/c(=N\\C(=O)Cc2ccc(S(C)(=O)=O)cc2)sc2c(OC)ccc(OC)c21")
"13.2 µg/mL"
>>> measured_result("COc1cccc2sc(Nc3sc4c(c3C(N)=O)CCCC4)nc12")
"3.58 µg/mL"
>>> measured_result("Cn1nccc1C(=O)Nc1nc2c(s1)CSc1ccccc1-2")
"0.145 µg/mL"
>>> measured_result("CCS(=O)(=O)c1ccc(CC(=O)Nc2nc3c(s2)CCc2ccccc2-3)cc1")
"0.908 µg/mL"
>>> measured_result("Cc1ccc(-c2nnc(NC(=O)c3ccc(S(=O)(=O)N4CCc5ccccc5C4)cc3)o2)cc1C")
"8.86 µg/mL"
>>> measured_result("COc1ccc(-c2ccc(NS(=O)(=O)c3ccc(Cl)s3)cc2)nn1")
"> 11.5 µg/mL"
>>> measured_result("CCc1ccc2nc(N(CCN(CC)CC)C(=O)Cc3ccc4c(c3)OCO4)sc2c1")
"> 14.3 µg/mL"
>>> measured_result("O=S(=O)(CCCOc1ccc(F)cc1)N1CCc2ccccc21")
"> 10.1 µg/mL"
>>> measured_result("O=C(c1ccc(F)c(F)c1)N1CCN(c2nccn2-c2cccc(Cl)c2)CC1")
"> 13.2 µg/mL"
>>> measured_result("CCc1ccc(S(=O)(=O)Nc2ccc3c(c2)NC(=O)C(C)(C)CO3)s1")
"> 11.4 µg/mL"
>>> measured_result("COc1ccc(S(=O)(=O)Nc2cc(C)nn2C2CCS(=O)(=O)C2)cc1C (stereo not drawn)")
"> 12 µg/mL"
>>> measured_result("COc1ccc2nc(N(CCCN(C)C)C(=O)CCCSc3ccccc3)sc2c1")
"4.06 µg/mL"
